Source: paper PMC10397247

Molecular target: T1, P4mS
T1 chain: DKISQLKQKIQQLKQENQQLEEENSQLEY
Experiment: two-hybrid library CCNG1;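 also: natural log of median RNA to DNA barcode read ratio; higher means stronger binding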
# strict inequality: interaction score < 0.2 yields label 1, everything else yields label 0

Please review the entries below; each comes with its answer.
binder | category
DKISQLKQKIQQLKQENQQLEEENSQLEY [P4mS] | label 1
DENQQLEQEISQLEQEISQLEQKNSQLKY [P11mS] | label 0
DKNSQLKEENSQLEEKIQQLKEKIQQLKY [P10mS] | label 1
DKNSQLKEKISQLKEKIQQLKEENQQLEY [P12mS] | label 1

Now let's try a different one.
Check if interaction score falls below 0.2 for DKNQQLEQEIQELKQKNQELEWEIQELEQ [4H3185-bN] .
label 1
